Measured values drawn from patent US20260250388A1 for this set.

# assayTarget: T1, KRAS G12V peptide on HLA-A*11:01 (human)
# T1 peptide: VVGAVGVGK
# assayProcedure: multimer staining
testReadout: binding result

{"binder": "TCR2 (TCR, V domains shown) Valpha: DQQVKQNSPSLSVQEGRISILNCDYTNSMFDYFLWYKKYPAEGPTFLISISSIKDKNEDGRFTVFLNKSAKHLSLHIVPSQPGDSAVYFCAAKDNAGNMLTFGGGTRLMVKP Vbeta: KAGVTQTPRYLIKTRGQQVTLSCSPISGHRSVSWYQQTPGQGLQFLFEYFSETQRNKGNFPGRFSGRQFSNSRSEMNVSTLELGDSALYLCASSLGTAEAFFGQGTRLTVV", "experimentalValue": "recognises"}
{"binder": "TCR7 (TCR, V domains shown) Valpha: DQQVKQNSPSLSVQEGRISILNCDYTNSMFDYFLWYKKYPAEGPTFLISISSIKDKNEDGRFTVFLNKSAKHLSLHIVPSQPGDSAVYFCAGKTNTGNQFYFGTGTSLTVIP Vbeta: KAGVTQTPRYLIKTRGQQVTLSCSPISGHRSVSWYQQTPGQGLQFLFEYFSETQRNKGNFPGRFSGRQFSNSRSEMNVSTLELGDSALYLCASSSGHPEAFFGQGTRLTVV", "experimentalValue": "recognises"}
{"binder": "TCR5 (TCR, V domains shown) Valpha: GEDVEQSLFLSVREGDSSVINCTYTDSSSTYLYWYKQEPGAGLQLLTYIFSNMDMKQDQRLTVLLNKKDKHLSLRIADTQTGDSAIYFCAESPGGGADGLTFGKGTHLIIQP Vbeta: GAVVSQHPSWVICKSGTSVKIECRSLDFQATTMFWYRQFPKQSLMLMATSNEGSKATYEQGVEKDKFLINHASLTLSTLTVTSAHPEDSSFYICSAPRGWAAGVYGYTFGSGTRLTVV", "experimentalValue": "recognises"}
